target: PANX1 (PANX1WT) (Homo sapiens, UniProt Q96RD7, R217H); construct: full-length; C-terminal TEV site-eGFP-8xHis, GFP/His cut by TEV for purified protein; HEK293S GnTI- (BacMam), GDN-solubilised homoheptamer; transiently transfected HEK293 for patch clamp; test: microscale thermophoresis; details: read-out: apparent binding affinity
Sequence (Q96RD7 whole entry R217H): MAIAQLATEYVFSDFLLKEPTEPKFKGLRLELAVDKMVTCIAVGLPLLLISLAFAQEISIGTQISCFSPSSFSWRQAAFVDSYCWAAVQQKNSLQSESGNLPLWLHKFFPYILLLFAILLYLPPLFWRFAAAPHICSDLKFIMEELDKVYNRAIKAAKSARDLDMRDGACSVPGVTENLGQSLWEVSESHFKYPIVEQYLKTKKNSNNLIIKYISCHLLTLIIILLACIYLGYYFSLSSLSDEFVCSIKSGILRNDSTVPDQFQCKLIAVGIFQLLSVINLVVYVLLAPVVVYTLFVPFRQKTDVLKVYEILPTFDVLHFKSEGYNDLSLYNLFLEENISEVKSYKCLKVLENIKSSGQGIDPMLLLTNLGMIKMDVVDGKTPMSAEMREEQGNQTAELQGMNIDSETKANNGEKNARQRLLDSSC
Measure name: pKd
For clarity, pKd is expressed as the negative log10 of concentration in mol/L.

Documented pKd of Nc1ncnc2c1ncn2[C@@H]1O[C@H](CO[P@](=O)(O)O[P@](=O)(O)O[P@@](=O)(O)S)[C@@H](O)[C@H]1O : 3.73

====

molecular target: PANX1 (PANX1WT) (Homo sapiens, UniProt Q96RD7, R75D/W74R); construct: full-length; C-terminal TEV site-eGFP-8xHis, GFP/His cut by TEV for purified protein; HEK293S GnTI- (BacMam), GDN-solubilised homoheptamer; transiently transfected HEK293 for patch clamp; assay: microscale thermophoresis
Sequence (Q96RD7 whole entry W74R/R75D): as the sequence (Q96RD7 whole entry R217H) above, with W74R, R75D, H217R counted along it
Measure name: pKd
For clarity, pKd is expressed as the negative log10 of concentration in mol/L.

Documented pKd of Nc1ncnc2c1ncn2[C@@H]1O[C@H](CO[P@](=O)(O)O[P@](=O)(O)O[P@@](=O)(O)S)[C@@H](O)[C@H]1O : 4.17

====

biological target: PANX1 (PANX1WT) (Homo sapiens, UniProt Q96RD7); construct: full-length; C-terminal TEV site-eGFP-8xHis, GFP/His cut by TEV for purified protein; HEK293S GnTI- (BacMam), GDN-solubilised homoheptamer; transiently transfected HEK293 for patch clamp; test: microscale thermophoresis; format: binding; details: read-out: affinity
Sequence (Q96RD7 whole entry): as the sequence (Q96RD7 whole entry R217H) above, with H217R counted along it
Measure name: pKd
For clarity, pKd is expressed as the negative log10 of concentration in mol/L.

Documented pKd of Nc1ncnc2c1ncn2[C@@H]1O[C@H](COP(=O)(O)OP(=O)(O)OP(=O)(O)O)[C@@H](O)[C@H]1O [ATP] : 4.68

====

molecular target: PANX1 (PANX1WT) (Homo sapiens, UniProt Q96RD7, K24A); construct: full-length; C-terminal TEV site-eGFP-8xHis, GFP/His cut by TEV for purified protein; HEK293S GnTI- (BacMam), GDN-solubilised homoheptamer; transiently transfected HEK293 for patch clamp; experiment: microscale thermophoresis
Sequence (Q96RD7 whole entry K24A): as the sequence (Q96RD7 whole entry R217H) above, with K24A, H217R counted along it
Measure name: Kd (µM)
Lab book: enter the figure in µM, no units written.

Documented Kd of Nc1ncnc2c1ncn2[C@@H]1O[C@H](CO[P@](=O)(O)O[P@](=O)(O)O[P@@](=O)(O)S)[C@@H](O)[C@H]1O : 94

====

target: PANX3 (PANX3WT) (Homo sapiens); construct: full-length, 392 residues; C-terminal TEV site-eGFP-8xHis, GFP/His cut by TEV for purified protein; HEK293S GnTI- (BacMam), GDN-solubilised homoheptamer; transiently transfected HEK293 for patch clamp; test: microscale thermophoresis; details: read-out: affinity
Sequence (Q96QZ0 whole entry): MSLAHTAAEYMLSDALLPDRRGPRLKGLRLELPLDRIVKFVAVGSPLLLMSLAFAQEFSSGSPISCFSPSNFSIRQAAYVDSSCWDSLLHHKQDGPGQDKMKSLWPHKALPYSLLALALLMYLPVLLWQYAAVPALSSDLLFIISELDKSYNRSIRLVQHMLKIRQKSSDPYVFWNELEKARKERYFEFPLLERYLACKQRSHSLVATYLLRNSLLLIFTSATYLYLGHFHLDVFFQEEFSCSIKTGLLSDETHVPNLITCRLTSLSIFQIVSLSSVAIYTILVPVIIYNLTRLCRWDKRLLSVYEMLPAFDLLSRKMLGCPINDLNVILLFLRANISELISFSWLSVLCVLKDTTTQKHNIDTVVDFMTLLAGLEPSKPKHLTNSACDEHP
Measure name: Kd (µM)
Lab book: enter the figure in µM, no units written.

Documented Kd of Nc1ncnc2c1ncn2[C@@H]1O[C@H](CO[P@](=O)(O)O[P@](=O)(O)O[P@@](=O)(O)S)[C@@H](O)[C@H]1O [ATP-γS] : 69

This collection of values is drawn from paper PMC10997603.
